FYI, the data here is from patent US8658604B2.

# Tested on: Tryptase, from human lung
# MEASUREMENT_PROTOCOL: Enzymatic assay, tryptase
# EXPERIMENTAL_CONTEXT: at 100 μM
Where a SMILES comes first, the peptide text is derived from it.
So I've got a bunch of compounds here, and I need their Tryptase at 100 μM % values.
Report only the number, with the unit % understood.

Value lookup for Tryptase at 100 μM %; key = CCCC[C@@H]1NC(=O)[C@H]([C@@H](C)O)NC(=O)[C@@H]2CSSC[C@H](NC(=O)[C@H]([C@@H](C)CC)NC(=O)[C@@H]3CCCN3C(=O)[C@@H]3CCCN3C(=O)[C@H](CC(=O)O)NC(=O)[C@H](CO)NC1=O)C(=O)N[C@@H](CCCNC(=N)N)C(=O)N1CCC[C@@H]1C(=O)N1CCC[C@H]1C(=O)N[C@@H]([C@@H](C)CC)C(=O)N2 [Ex. 59] (HELM PEPTIDE1{I.C.T.[Nle].S.D.P.P.I.C.R.[dP].P}$PEPTIDE1,PEPTIDE1,2:R3-10:R3|PEPTIDE1,PEPTIDE1,1:R1-13:R2$$$V2.0) 3.8

What do you have for CCCC[C@@H]1NC(=O)[C@@H]2CCCN2C(=O)[C@H]2CCCN2C(=O)[C@H](c2ccccc2)NC(=O)[C@@H]2CSSC[C@H](NC1=O)C(=O)N[C@@H]([C@@H](C)O)C(=O)N[C@@H](C)C(=O)N[C@@H](CO)C(=O)N[C@@H]([C@@H](C)CC)C(=O)N1CCC[C@H]1C(=O)N1CCC[C@H]1C(=O)N[C@@H](CCC(N)=O)C(=O)N2 [Ex. 98] (HELM PEPTIDE1{[Nle].C.T.A.S.I.P.P.Q.C.[Phg].[dP].P}$PEPTIDE1,PEPTIDE1,2:R3-10:R3|PEPTIDE1,PEPTIDE1,1:R1-13:R2$$$V2.0) ? 0

What do we get for CCCC[C@@H]1NC(=O)[C@H](CCC(=O)O)NC(=O)[C@@H](CCCCN)NC(=O)[C@H](Cc2ccc(O)cc2)NC(=O)[C@@H]2CSSC[C@H](NC1=O)C(=O)N[C@@H]([C@@H](C)O)C(=O)N[C@@H](C)C(=O)N[C@@H](CO)C(=O)N[C@@H]([C@@H](C)CC)C(=O)N1CCC[C@H]1C(=O)N1CCC[C@H]1C(=O)N[C@@H](CCC(N)=O)C(=O)N2 [Ex. 127] (HELM PEPTIDE1{[Nle].C.T.A.S.I.P.P.Q.C.Y.[dK].E}$PEPTIDE1,PEPTIDE1,2:R3-10:R3|PEPTIDE1,PEPTIDE1,1:R1-13:R2$$$V2.0) ? 0

Same again, this time with CCCC[C@@H]1NC(=O)[C@@H]2CCCN2C(=O)[C@@H]2CCCN2C(=O)[C@H](CC(=O)O)NC(=O)[C@H](CO)NC(=O)[C@H](CCCCN)NC(=O)[C@H]([C@@H](C)O)NC(=O)[C@@H]2CSSC[C@H](NC1=O)C(=O)N[C@@H](CCCNC(=N)N)C(=O)N1CCC[C@@H]1C(=O)N1CCC[C@H]1C(=O)N[C@@H]([C@@H](C)CC)C(=O)N2 [Ex. 57] (HELM PEPTIDE1{I.C.T.K.S.D.P.P.[Nle].C.R.[dP].P}$PEPTIDE1,PEPTIDE1,2:R3-10:R3|PEPTIDE1,PEPTIDE1,1:R1-13:R2$$$V2.0) 82.2

---

Would you mind telling me the reported FXa at 100 μM % of each entry?
# SYSTEM_NAME: Coagulation Factor Xa, from uman plasma (Homo sapiens, UniProt P00742)
# Sequence (P00742 235-488 limits assumed): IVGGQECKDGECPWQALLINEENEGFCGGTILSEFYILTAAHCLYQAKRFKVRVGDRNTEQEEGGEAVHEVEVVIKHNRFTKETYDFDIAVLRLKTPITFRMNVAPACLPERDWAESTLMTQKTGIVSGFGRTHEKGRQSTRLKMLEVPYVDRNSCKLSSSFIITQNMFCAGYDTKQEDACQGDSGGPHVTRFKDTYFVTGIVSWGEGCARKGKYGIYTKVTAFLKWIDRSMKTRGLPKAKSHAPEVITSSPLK
# Sequence (P00742 41-179 limits assumed): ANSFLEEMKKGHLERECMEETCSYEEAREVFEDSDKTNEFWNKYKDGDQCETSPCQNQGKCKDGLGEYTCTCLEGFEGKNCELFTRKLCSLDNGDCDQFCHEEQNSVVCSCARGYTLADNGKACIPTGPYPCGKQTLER
# MEASUREMENT_PROTOCOL: Enzymatic assay, coagulation factor Xa
Where a SMILES comes first, the peptide text is derived from it.
# unit: % | format: bare number

Tell me the measured FXa at 100 μM % of CC[C@H](C)[C@@H]1NC(=O)[C@H](CO)NC(=O)[C@H](C)NC(=O)[C@H]([C@@H](C)O)NC(=O)[C@@H]2CSSC[C@H](NC(=O)[C@H](CCC(N)=O)NC(=O)[C@@H]3CCCN3C(=O)[C@@H]3CCCN3C1=O)C(=O)N[C@@H](Cc1ccccc1)C(=O)N1CCC[C@@H]1C(=O)N1CCC[C@H]1C(=O)N[C@@H](CCc1ccccc1)C(=O)N2 [Ex. 146] (HELM PEPTIDE1{[O=C([C@H](CCc1ccccc1)N[*:1])[*:2]].C.T.A.S.I.P.P.Q.C.F.[dP].P}$PEPTIDE1,PEPTIDE1,2:R3-10:R3|PEPTIDE1,PEPTIDE1,1:R1-13:R2$$$V2.0) , please. 1

What would you report for CCCC[C@@H]1NC(=O)[C@@H]2CCCN2C(=O)[C@H]2CCCN2C(=O)[C@H](Cc2ccccc2Cl)NC(=O)[C@@H]2CSSC[C@H](NC1=O)C(=O)N[C@@H]([C@@H](C)O)C(=O)N[C@@H](C)C(=O)N[C@@H](CO)C(=O)N[C@@H]([C@@H](C)CC)C(=O)N1CCC[C@H]1C(=O)N1CCC[C@H]1C(=O)N[C@@H](CCC(N)=O)C(=O)N2 [Ex. 144] (HELM PEPTIDE1{[Nle].C.T.A.S.I.P.P.Q.C.[O=C([C@H](Cc1ccccc1Cl)N[*:1])[*:2]].[dP].P}$PEPTIDE1,PEPTIDE1,2:R3-10:R3|PEPTIDE1,PEPTIDE1,1:R1-13:R2$$$V2.0) ? 0

---

# SYSTEM_NAME: Chymotrypsin, from human pancreas (Homo sapiens, UniProt P17538)
# Sequence (P17538 19-263): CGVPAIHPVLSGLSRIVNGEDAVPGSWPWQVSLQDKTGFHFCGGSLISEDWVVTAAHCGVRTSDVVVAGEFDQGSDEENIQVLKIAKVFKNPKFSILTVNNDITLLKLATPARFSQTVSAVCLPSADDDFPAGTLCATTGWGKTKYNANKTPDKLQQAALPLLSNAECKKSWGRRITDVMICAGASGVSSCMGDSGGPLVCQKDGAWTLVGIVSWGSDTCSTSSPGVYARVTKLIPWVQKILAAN
# MEASUREMENT_PROTOCOL: Enzymatic assay, chymotrypsin
# EXPERIMENTAL_CONTEXT: at 100 μM
Where a SMILES comes first, the peptide text is derived from it.
REPORTED_ENDPOINT: Chymotrypsin at 100 μM %
Include the unit right after the number.

Using the record for CCCC[C@@H]1NC(=O)[C@@H]2CCCN2C(=O)[C@H]2CCCN2C(=O)[C@H](Cc2ccc(O)cc2)NC(=O)[C@@H]2CSSC[C@H](NC1=O)C(=O)N[C@@H]([C@@H](C)O)C(=O)N[C@@H](C)C(=O)N[C@@H](CO)C(=O)N[C@@H]([C@@H](C)CC)C(=O)N1CCC[C@H]1C(=O)N1CC(NC(=O)c3ccccc3)C[C@H]1C(=O)N[C@@H](CCC(N)=O)C(=O)N2 (single isomer, unassigned) [Ex. 138] , report its Chymotrypsin at 100 μM %. 77.1%

Record: CCCC[C@@H]1NC(=O)[C@H](CCC(=O)O)NC(=O)[C@@H](CCCCN)NC(=O)[C@H](Cc2ccc(O)cc2)NC(=O)[C@@H]2CSSC[C@H](NC1=O)C(=O)N[C@@H]([C@@H](C)O)C(=O)N[C@@H](C)C(=O)N[C@@H](CO)C(=O)N[C@@H]([C@@H](C)CC)C(=O)N1CCC[C@H]1C(=O)N1CCC[C@H]1C(=O)N[C@@H](CCC(N)=O)C(=O)N2 [Ex. 127] (HELM PEPTIDE1{[Nle].C.T.A.S.I.P.P.Q.C.Y.[dK].E}$PEPTIDE1,PEPTIDE1,2:R3-10:R3|PEPTIDE1,PEPTIDE1,1:R1-13:R2$$$V2.0) 47.2%

Note, next up: CCCC[C@@H]1NC(=O)[C@@H]2CCCN2C(=O)[C@H]2CCCN2C(=O)[C@H](Cc2ccc(O)cc2)NC(=O)[C@@H]2CSSC[C@H](NC1=O)C(=O)N[C@@H]([C@@H](C)O)C(=O)N[C@@H](CCCCN)C(=O)N[C@@H](CO)C(=O)N[C@@H](CC(=O)O)C(=O)N1CCC[C@H]1C(=O)N1CCC[C@H]1C(=O)N[C@@H]([C@@H](C)CC)C(=O)N2 [Ex. 44] (HELM PEPTIDE1{[Nle].C.T.K.S.D.P.P.I.C.Y.[dP].P}$PEPTIDE1,PEPTIDE1,2:R3-10:R3|PEPTIDE1,PEPTIDE1,1:R1-13:R2$$$V2.0) 24%

Now give it for CC[C@H](C)[C@@H]1NC(=O)[C@@H]2CCCN2C(=O)[C@@H]2CCCN2C(=O)[C@H](CC(=O)O)NC(=O)[C@H](CO)NC(=O)[C@H](CCCCN)NC(=O)[C@H]([C@@H](C)O)NC(=O)[C@@H]2CSSC[C@H](NC1=O)C(=O)N[C@@H](Cc1ccc(O)cc1)C(=O)N1CCC[C@@H]1C(=O)N1CCC[C@H]1C(=O)N[C@@H](Cc1ccc(O)cc1)C(=O)N2 [Ex. 26] (HELM PEPTIDE1{Y.C.T.K.S.D.P.P.I.C.Y.[dP].P}$PEPTIDE1,PEPTIDE1,2:R3-10:R3|PEPTIDE1,PEPTIDE1,1:R1-13:R2$$$V2.0) too. 2.2%

Would you kindly repeat that for CCCC[C@@H]1NC(=O)[C@@H]2CCCN2C(=O)[C@@H]2CCCN2C(=O)[C@H](CC(=O)O)NC(=O)[C@H](CO)NC(=O)[C@H](CCCCN)NC(=O)[C@H]([C@@H](C)O)NC(=O)[C@@H]2CSSC[C@H](NC1=O)C(=O)N[C@@H](CO)C(=O)N1CCC[C@@H]1C(=O)N1CCC[C@H]1C(=O)N[C@@H](Cc1ccccc1)C(=O)N2 [Ex. 15] (HELM PEPTIDE1{F.C.T.K.S.D.P.P.[Nle].C.S.[dP].P}$PEPTIDE1,PEPTIDE1,2:R3-10:R3|PEPTIDE1,PEPTIDE1,1:R1-13:R2$$$V2.0) ? 54.2%
